Tested on: HCC 2998
Assay: NCI tumour cell line growth inhibition, 48 h
The source made the active and inactive calls. Cut-off read from the data, not from the text of the source: active = GI50 up to about 1.1 µM and inactive = higher.
Outcomes: active, inactive

| COMPOUND | CLASS |
| --- | --- |
| CN1C(=O)c2ccccc2NC(=O)c2cnn(C)c21 | inactive |
| COC(=O)c1ccccc1/C=C1\Cc2c(ccc3c2CCC3)C1=O | inactive |
| CCn1cc(C(=O)O)c(=O)c2ccc(C)nc21 | inactive |
| CCOC(=O)C(NC(=O)c1cccc(Cl)c1)(N1CCN(c2cc3c(cc2F)c(=O)c(C(=O)O)cn3C2CC2)CC1)C(F)(F)F (stereo unspecified) | inactive |
| O=C(CC1=Nc2nnc(-c3nnc4n3C(=O)C(CC(=O)c3cccnc3)=N4)n2C1=O)c1cccnc1 | inactive |
| CC1=C(C(=O)CC(=O)C(=O)Nc2ccccc2C)Sc2ccccc2N1 | inactive |
| CCOC(=O)/N=c1\ss/c(=N\C(=S)N(C)C)n1-c1ccccc1 | inactive |
| Oc1cc(-c2cccc(OC(F)(F)F)c2)nc2ccc(N3CCCC3)cc12 | active |
| O=C1c2[nH]c3ccc(Br)cc3c2CCN1Cc1ccc(Cl)cc1 | inactive |
| OC1OCC(COc2cc(Cl)c(Cl)cc2Cl)OC1O (stereo unspecified) | inactive |
| c1cc(-c2cn[nH]c2)cc(-c2cn[nH]c2)c1 | inactive |
| C=C1COC(O)(C2OCOC(C3CC(=O)NC(=O)C3)C2O)C1C (stereo unspecified) | active |
| C=CCn1c(-c2cc(C(C)(C)C)c(O)c(C(C)(C)C)c2)cs/c1=N\C(P(=O)(O)O)P(=O)(O)O | inactive |
| CN(C)C(=N/O)/C(=N\O)N(C)C | inactive |
| CC#CC(O)(C(=O)OC1CCC2CCC1N2C)C1CCCC1 (stereo unspecified) | inactive |
| COc1cc(C/N=c2/nc(N(C)C)ss2)cc(OC)c1OC | inactive |
| COc1nc(C(Cl)(Cl)Cl)c(Cl)c(O)c1Cl | inactive |
| O=C1Nc2cc([N+](=O)[O-])ccc2N/C1=C/C(=O)c1ccc(Cl)cc1 | inactive |
| c1ccc2c3nc(C4CCCC4)nc-3c(NC3CCCC3)[nH]c2c1 | inactive |
| CCOC(=O)/C(C)=C\[C@@]1(C)O[C@@H](C)[C@@](C)(OC(C)=O)[C@@H]1OC(C)=O | inactive |
| COc1ccc(/C=C\c2cc(OC)c(OC)c(OC)c2)cc1 | active |
| COC(C)(C)/C=C/c1[nH]c2ccccc2c1CC(=O)NCCc1cn(C(c2ccccc2)(c2ccccc2)c2ccccc2)cn1 | active |
| C/C(=N\NC(=O)CC#N)C(CN1CCCCC1)C(c1ccccc1)c1c(O)c2ccccc2oc1=O (stereo unspecified) | inactive |
| O=c1nc(NC(c2ccccc2)(c2ccccc2)c2ccccc2)ccn1CCNCCn1ccc(NC(c2ccccc2)(c2ccccc2)c2ccccc2)nc1=O | inactive |
| CCN(CC)C(=S)SS(=O)(=O)c1ccc(Cl)cc1 | inactive |
| CCN(CC)c1ccc(/C=c2\nc(-c3ccccc3)n3c2nc2ccccc23)cc1 | inactive |
| CCCC(=O)OCC1OC(n2cc(F)c(=O)[nH]c2=O)CC1OC(=O)CCC (stereo unspecified) | active |
| O=c1c2cc(Cl)ccc2n2nnc3ccc(NCCNCCO)c1c32 | inactive |
| CC1(C)Cc2nnsc2C2=C1C(=O)CCS2 | inactive |
| COc1ccc(C2=Nn3c(nc4sc5c(c4c3=O)CCCC5)SC2)cc1 | inactive |
| CCN(CC)C(=S)N/N=C/c1cc(OC)ccc1O | inactive |
| [N-]=[N+]=CC(=O)C1CCN(c2ccccc2)C1=O (stereo unspecified) | inactive |
| CCOC(=O)C(=O)Nc1c(C)cccc1C | inactive |
| c1ccc(CNc2c3c(nc4ccccc24)CCC3)cc1 | inactive |
| S=C(Nc1ccccn1)Nc1ccccc1Cl | inactive |
| O=c1oc2ccccc2cc1-c1nc2ccc([N+](=O)[O-])cc2o1 | inactive |
